Recorded values, source paper PMC10461225.

Target: T1, Recombinant His-tagged human GFRAL (Ser19–Glu351) (human, UniProt Q6UXV0 19-351)
T1 construct: GDNF family receptor alpha-like (GFRAL), human, extracellular domain S19-E351 as defined by UniProt Q6UXV0; also called GFRAL–ECD; GFRAL (S19–E351); source: bought: ACRO Biosystems (GFA-H52H3), expressed in HEK293 cells
T1 sequence (looked up): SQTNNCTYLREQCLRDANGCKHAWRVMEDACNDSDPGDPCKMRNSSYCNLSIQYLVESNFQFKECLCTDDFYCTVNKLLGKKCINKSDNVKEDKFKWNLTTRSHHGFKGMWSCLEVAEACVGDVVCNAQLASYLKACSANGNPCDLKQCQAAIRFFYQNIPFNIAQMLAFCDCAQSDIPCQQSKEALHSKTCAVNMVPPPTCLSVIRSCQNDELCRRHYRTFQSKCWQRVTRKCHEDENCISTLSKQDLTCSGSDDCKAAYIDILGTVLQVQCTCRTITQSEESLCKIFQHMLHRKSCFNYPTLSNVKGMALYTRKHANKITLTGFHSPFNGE
Assay: SPR; biotin-GRASP immobilised on a streptavidin-coated biotin sensor (Nicoya OpenSPR); GFRAL-ECD (20, 100, 200, 600 nM), GDF15 (1 uM) or RET (0.29 uM) as analyte; HBSS pH 7.4; 1:1 fit with local Bmax (TraceDrawer)
Conditions: both partners purified
Square brackets hold non-standard residues; d marks the D form. Ends that are not written are not given here. PEG2‑C4‑alkyne‑biotin = PEG2-C4-alkyne-modified biotin; K‑azido = azido-modified lysine
reported.endpoint: Kd (nM)
Number in nM, nothing else.

What does the record list as Kd for T[K‑azido](PEG2‑C4‑alkyne‑biotin)EELIHAHADPMVLIQKTDTGVSLQTYD (GRASP peptide as m1, biotin on the azido-lysine at position 2; Held on the sensor through biotin-streptavidin (His-tagged streptavidin on a biotin sensor); also called biotin-conjugated GRASP; biotin-GRASP; source: synthetic peptide, conjugated to PEG2-C4-alkyne biotin, RP-HPLC purified (95%)) [Biotinylated GRASP] ?
74.1
